Data provenance is the supplement of paper PMC3353916.

# Tested on: Sindbis virus TE/5'2J-GFP
# EXPERIMENT_DESCRIPTION: percent infected (GFP+ in RFP+ ISG-expressing cells); higher = more infection (less antiviral activity)
# EXPERIMENTAL_PARAMETERS: experiment: confirmatory screen 1; BHK/HA-Zeo (control)
percent infected: recorded values
Use % as the unit, but write only the number.

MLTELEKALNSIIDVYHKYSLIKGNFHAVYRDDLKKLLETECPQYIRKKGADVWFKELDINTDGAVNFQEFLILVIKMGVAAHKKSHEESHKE [S100A8]    80.1

Switching to the query record.
Ask: Record request: percent infected value, item MTLRCLEPSGNGGEGTRSQWGTAGSAEEPSPQAARLAKALRELGQTGWYWGSMTVNEAKEKLKEAPEGTFLIRDSSHSDYLLTISVKTSAGPTNLRIEYQDGKFRLDSIICVKSKLKQFDSVVHLIDYYVQMCKDKRTGPEAPRNGTVHLYLTKPLYTSAPSLQHLCRLTINKCTGAIWGLPLPTRLKDYLEEYKFQV [SOCS2]
Reply: 95.8

###

percent infected: recorded values
# System: Sindbis virus TE/5'2J-GFP;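 also: Interferon-defective BHK-21 derivatives, ZAP line overexpressing the rat ZAP N-terminal zinc finger domain fused to Zeocin resistance, GFP scored within live singlet TagRFP+ cells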
# EXPERIMENT_DESCRIPTION: percent infected (GFP+ in RFP+ ISG-expressing cells); higher = more infection (less antiviral activity)
# EXPERIMENTAL_PARAMETERS: experiment: confirmatory screen 1; BHK/HA-Zeo (control)
Use % as the unit, but write only the number.

MEQHFLGCVKRAWDSAEVAPEPQPPPIVSSEDRGPWPLPLYPVLGEYSLDSCDLGLLSSPCWRLPGVYWQNGLSPGVQSTLEPSTAKPTEFSWPGTQKQQEAPVEEVGQAEEPDRLRLQQLPWSSPLHPWDRQQDTEVCDSGCLLERRHPPALQPWRHLPGFSDCLEWILRVGFAAFSVLWACCSRICGAKQP [C5orf39]    76.7

Ask: What reported percent infected corresponds to MFAKGKGSAVPSDGQAREKLALYVYEYLLHVGAQKSAQTFLSEIRWEKNITLGEPPGFLHSWWCVFWDLYCAAPERRDTCEHSSEAKAFHDYSAAAAPSPVLGNIPPNDGMPGGPIPPGFFQGPPGSQPSPHAQPPPHNPSSMMGPHSQPFMSPRYAGGPRPPIRMGNQPPGGVPGTQPLLPNSMDPTRQQGHPNMGGSMQRMNPPRGMGPMGPGPQNYGSGMRPPPNSLGPAMPGINMGPGAGRPWPNPNSANSIPYSSSSPGTYVGPPGGGGPPGTPIMPSPADSTNSSDNIYTMINPVPPGGSRSNFPMGPGSDGPMGGMGGMEPHHMNGSLGSGDIDGLPKNSPNNISGISNPPGTPRDDGELGGNFLHSFQNDNYSPSMTMSV [SSBP3] on Sindbis virus TE/5'2J-GFP?
Reply: 63.1

Ask: And for MSLRGSLSRLLQTRVHSILKKSVHSVAVIGAPFSQGQKRKGVEHGPAAIREAGLMKRLSSLGCHLKDFGDLSFTPVPKDDLYNNLIVNPRSVGLANQELAEVVSRAVSDGYSCVTLGGDHSLAIGTISGHARHCPDLCVVWVDAHADINTPLTTSSGNLHGQPVSFLLRELQDKVPQLPGFSWIKPCISSASIVYIGLRDVDPPEHFILKNYDIQYFSMRDIDRLGIQKVMERTFDLLIGKRQRPIHLSFDIDAFDPTLAPATGTPVVGGLTYREGMYIAEEIHNTGLLSALDLVEVNPQLATSEEEAKTTANLAVDVIASSFGQTREGGHIVYDQLPTPSSPDESENQARVRI [ARG2] ?
Reply: 93.3

Ask: And for MASVIPASNRSMRSDRNTYVGKRFVHVKNPYLDLMDEDILYHLDLGTKTHNLPAMFGDVKFVCVGGSPNRMKAFALFMHKELGFEEAEEDIKDICAGTDRYCMYKTGPVLAISHGMGIPSISIMLHELIKLLHHARCCDVTIIRIGTSGGIGIAPGTVVITDIAVDSFFKPRFEQVILDNIVTRSTELDKELSEELFNCSKEIPNFPTLVGHTMCTYDFYEGQGRLDGALCSFSREKKLDYLKRAFKAGVRNIEMESTVFAAMCGLCGLKAAVVCVTLLDRLDCDQINLPHDVLVEYQQRPQLLISNFIRRRLGLCD [UPP2] ?
Reply: 74.9

Ask: And for MAGIELERCQQQANEVTEIMRNNFGKVLERGVKLAELQQRSDQLLDMSSTFNKTTQNLAQKKCWENIRYRICVGLVVVGVLLIILIVLLVVFLPQSSDSSSAPRTQDAGIASGPGN [VAMP5] ?
Reply: 97.4
